Measured values drawn from patent US20250034216A1 for this set.

Target: PRRT3_C720 (Homo sapiens)
Construct: endogenous in cells; host or cells: 22Rv1
Sequence (Q5FWE3 28-981): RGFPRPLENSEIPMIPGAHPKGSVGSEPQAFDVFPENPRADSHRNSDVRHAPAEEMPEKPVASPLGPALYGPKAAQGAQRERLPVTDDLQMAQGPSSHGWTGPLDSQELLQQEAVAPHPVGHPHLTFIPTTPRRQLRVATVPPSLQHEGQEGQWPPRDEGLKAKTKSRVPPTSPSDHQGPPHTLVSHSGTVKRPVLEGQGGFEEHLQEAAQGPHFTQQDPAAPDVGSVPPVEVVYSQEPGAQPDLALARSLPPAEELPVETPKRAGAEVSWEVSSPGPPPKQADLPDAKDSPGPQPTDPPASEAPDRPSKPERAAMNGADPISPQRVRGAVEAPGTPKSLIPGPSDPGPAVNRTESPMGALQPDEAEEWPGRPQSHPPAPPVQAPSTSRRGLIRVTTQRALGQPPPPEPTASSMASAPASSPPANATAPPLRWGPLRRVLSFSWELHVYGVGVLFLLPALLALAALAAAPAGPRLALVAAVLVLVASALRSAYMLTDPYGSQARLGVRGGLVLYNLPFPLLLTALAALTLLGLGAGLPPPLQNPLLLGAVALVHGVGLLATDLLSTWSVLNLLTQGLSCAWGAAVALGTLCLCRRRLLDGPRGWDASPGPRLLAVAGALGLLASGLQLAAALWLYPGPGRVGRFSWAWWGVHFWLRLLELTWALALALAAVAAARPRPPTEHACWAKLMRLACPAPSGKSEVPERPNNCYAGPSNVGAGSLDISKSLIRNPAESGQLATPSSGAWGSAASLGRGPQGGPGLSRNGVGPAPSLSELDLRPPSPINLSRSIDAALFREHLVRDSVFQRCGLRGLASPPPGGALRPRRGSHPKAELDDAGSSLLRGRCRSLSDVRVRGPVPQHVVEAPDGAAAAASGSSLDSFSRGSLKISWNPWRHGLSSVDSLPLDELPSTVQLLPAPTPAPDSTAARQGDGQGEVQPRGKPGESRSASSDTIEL
Assay: IA-DTB cysteine engagement
Assay type: binding
Conditions: 22Rv1 cells, 20 μM probe, 1 h, relative to DMSO
reported-property: % engagement PRRT3_C720 (%)
Lab book: enter the figure in %, no units written.

Here's what some known entries look like.
[
  {
    "compound": "C=CC(=O)N1C[C@H](c2ccc(Br)cc2)[C@@H]1C(=O)Nc1cccc2cccnc12",
    "tested-on": "PRRT3_C720 (Homo sapiens)",
    "% engagement PRRT3_C720 [%]": 53
  },
  {
    "compound": "C=CC(=O)N1C[C@H](c2ccc(Br)cc2)[C@H]1C(=O)Nc1cccc2cccnc12 [MY-3B]",
    "tested-on": "PRRT3_C720 (Homo sapiens)",
    "% engagement PRRT3_C720 [%]": 71
  },
  {
    "compound": "C=CC(=O)N1C[C@@H](c2ccc(Br)cc2)[C@H]1C(=O)Nc1cccc2cccnc12",
    "tested-on": "PRRT3_C720 (Homo sapiens)",
    "% engagement PRRT3_C720 [%]": 47
  }
]

Next up:
[ask] Using known records, supply % engagement PRRT3_C720 for C=CC(=O)N1C[C@H](c2ccc(Br)cc2)[C@H]1C(=O)Nc1cccc2cccnc12 [MY-3A]
[reply] 45.5

###

Target: PDE3B_C311 (Homo sapiens, UniProt Q13370)
Construct: endogenous in cells; host or cells: 22Rv1
Sequence (Q13370 whole entry): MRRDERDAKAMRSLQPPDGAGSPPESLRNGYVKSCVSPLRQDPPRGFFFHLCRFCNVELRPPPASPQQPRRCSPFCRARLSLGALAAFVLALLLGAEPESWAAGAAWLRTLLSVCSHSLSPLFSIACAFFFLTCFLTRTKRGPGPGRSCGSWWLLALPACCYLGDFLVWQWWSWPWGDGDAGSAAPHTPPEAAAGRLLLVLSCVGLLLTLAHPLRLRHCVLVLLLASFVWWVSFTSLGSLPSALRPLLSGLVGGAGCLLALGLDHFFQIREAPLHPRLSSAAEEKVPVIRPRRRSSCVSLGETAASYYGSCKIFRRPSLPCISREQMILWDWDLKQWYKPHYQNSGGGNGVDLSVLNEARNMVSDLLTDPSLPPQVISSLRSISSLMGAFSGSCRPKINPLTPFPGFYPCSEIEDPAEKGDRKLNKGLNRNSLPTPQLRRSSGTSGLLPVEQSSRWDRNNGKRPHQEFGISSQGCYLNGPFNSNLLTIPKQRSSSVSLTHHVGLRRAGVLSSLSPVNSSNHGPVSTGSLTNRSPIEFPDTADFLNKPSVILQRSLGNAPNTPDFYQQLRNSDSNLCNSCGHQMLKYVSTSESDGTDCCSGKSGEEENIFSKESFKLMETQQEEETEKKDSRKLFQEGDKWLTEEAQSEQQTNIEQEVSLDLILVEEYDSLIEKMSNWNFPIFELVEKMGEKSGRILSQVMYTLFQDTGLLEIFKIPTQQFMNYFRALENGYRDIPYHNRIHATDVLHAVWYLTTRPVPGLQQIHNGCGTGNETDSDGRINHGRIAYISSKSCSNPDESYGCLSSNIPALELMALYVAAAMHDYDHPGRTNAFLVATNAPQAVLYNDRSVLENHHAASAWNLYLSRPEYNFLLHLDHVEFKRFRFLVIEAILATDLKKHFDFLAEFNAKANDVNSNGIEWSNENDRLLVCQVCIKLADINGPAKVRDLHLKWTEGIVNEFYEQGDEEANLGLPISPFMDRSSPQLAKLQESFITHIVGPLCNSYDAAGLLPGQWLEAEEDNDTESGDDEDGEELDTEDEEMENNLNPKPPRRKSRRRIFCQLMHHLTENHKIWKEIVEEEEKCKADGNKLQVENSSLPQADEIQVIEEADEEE
Assay: IA-DTB cysteine engagement
Assay type: binding
Conditions: 22Rv1 cells, 20 μM probe, 1 h, relative to DMSO
reported-property: % engagement PDE3B_C311 (%)
Lab book: enter the figure in %, no units written.

[
  {
    "molecule": "C=CC(=O)N1C[C@H](c2ccc(Br)cc2)[C@@H]1C(=O)Nc1cccc2cccnc12",
    "value-unit": "%",
    "% engagement PDE3B_C311": 58
  },
  {
    "molecule": "C=CC(=O)N1C[C@H](c2ccc(Br)cc2)[C@H]1C(=O)Nc1cccc2cccnc12 [MY-3A]",
    "value-unit": "%",
    "% engagement PDE3B_C311": 49
  },
  {
    "molecule": "C=CC(=O)N1C[C@H](c2ccc(Br)cc2)[C@H]1C(=O)Nc1cccc2cccnc12 [MY-3B]",
    "value-unit": "%",
    "% engagement PDE3B_C311": 75.5
  }
]

[ask] Using known records, supply % engagement PDE3B_C311 for C=CC(=O)N1C[C@@H](c2ccc(Br)cc2)[C@H]1C(=O)Nc1cccc2cccnc12
[reply] 57.5

###

Listed below: % engagement HNRNPLL_C235 values for each entry.
Biological target: HNRNPLL_C235 (Homo sapiens)
Construct: endogenous in cells; host or cells: 22Rv1
Sequence (Q8WVV9 1-542): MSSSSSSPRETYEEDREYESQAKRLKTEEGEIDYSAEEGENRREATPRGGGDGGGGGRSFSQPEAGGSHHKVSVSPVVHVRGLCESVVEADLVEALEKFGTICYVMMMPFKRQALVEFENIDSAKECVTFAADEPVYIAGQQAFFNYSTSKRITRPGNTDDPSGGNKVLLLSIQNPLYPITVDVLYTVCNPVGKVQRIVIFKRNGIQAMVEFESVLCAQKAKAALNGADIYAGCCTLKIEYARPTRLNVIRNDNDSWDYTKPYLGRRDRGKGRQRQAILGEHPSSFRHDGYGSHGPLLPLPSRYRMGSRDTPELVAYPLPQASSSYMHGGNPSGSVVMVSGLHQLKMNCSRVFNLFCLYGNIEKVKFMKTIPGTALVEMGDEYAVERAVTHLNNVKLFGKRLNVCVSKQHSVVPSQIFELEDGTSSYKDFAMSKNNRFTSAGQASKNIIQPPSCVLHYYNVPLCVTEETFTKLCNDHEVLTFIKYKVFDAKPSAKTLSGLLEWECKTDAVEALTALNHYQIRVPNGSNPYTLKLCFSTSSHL
Experiment: IA-DTB cysteine engagement
Assay type: binding
Settings: 22Rv1 cells, 20 μM probe, 1 h, relative to DMSO
A bare number is not enough; add the unit after it.

Here's what some known entries look like.
[
  {
    "compound": "C=CC(=O)N1C[C@H](c2ccc(Br)cc2)[C@@H]1C(=O)Nc1cccc2cccnc12 [MY-1B]",
    "% engagement HNRNPLL_C235": "34%"
  },
  {
    "compound": "C=CC(=O)N1C[C@H](c2ccc(Br)cc2)[C@H]1C(=O)Nc1cccc2cccnc12 [MY-3B]",
    "% engagement HNRNPLL_C235": "75%"
  },
  {
    "compound": "C=CC(=O)N1C[C@H](c2ccc(Br)cc2)[C@H]1C(=O)Nc1cccc2cccnc12 [MY-3A]",
    "% engagement HNRNPLL_C235": "−7.5%"
  }
]

Next up:
[ask] Using known records, supply % engagement HNRNPLL_C235 for C=CC(=O)N1C[C@@H](c2ccc(Br)cc2)[C@H]1C(=O)Nc1cccc2cccnc12 [MY-1A]
[reply] 15%

###

Target: MAGI1_C526 (Homo sapiens)
Construct: endogenous in cells; host or cells: 22Rv1
Sequence (Q96QZ7 whole entry): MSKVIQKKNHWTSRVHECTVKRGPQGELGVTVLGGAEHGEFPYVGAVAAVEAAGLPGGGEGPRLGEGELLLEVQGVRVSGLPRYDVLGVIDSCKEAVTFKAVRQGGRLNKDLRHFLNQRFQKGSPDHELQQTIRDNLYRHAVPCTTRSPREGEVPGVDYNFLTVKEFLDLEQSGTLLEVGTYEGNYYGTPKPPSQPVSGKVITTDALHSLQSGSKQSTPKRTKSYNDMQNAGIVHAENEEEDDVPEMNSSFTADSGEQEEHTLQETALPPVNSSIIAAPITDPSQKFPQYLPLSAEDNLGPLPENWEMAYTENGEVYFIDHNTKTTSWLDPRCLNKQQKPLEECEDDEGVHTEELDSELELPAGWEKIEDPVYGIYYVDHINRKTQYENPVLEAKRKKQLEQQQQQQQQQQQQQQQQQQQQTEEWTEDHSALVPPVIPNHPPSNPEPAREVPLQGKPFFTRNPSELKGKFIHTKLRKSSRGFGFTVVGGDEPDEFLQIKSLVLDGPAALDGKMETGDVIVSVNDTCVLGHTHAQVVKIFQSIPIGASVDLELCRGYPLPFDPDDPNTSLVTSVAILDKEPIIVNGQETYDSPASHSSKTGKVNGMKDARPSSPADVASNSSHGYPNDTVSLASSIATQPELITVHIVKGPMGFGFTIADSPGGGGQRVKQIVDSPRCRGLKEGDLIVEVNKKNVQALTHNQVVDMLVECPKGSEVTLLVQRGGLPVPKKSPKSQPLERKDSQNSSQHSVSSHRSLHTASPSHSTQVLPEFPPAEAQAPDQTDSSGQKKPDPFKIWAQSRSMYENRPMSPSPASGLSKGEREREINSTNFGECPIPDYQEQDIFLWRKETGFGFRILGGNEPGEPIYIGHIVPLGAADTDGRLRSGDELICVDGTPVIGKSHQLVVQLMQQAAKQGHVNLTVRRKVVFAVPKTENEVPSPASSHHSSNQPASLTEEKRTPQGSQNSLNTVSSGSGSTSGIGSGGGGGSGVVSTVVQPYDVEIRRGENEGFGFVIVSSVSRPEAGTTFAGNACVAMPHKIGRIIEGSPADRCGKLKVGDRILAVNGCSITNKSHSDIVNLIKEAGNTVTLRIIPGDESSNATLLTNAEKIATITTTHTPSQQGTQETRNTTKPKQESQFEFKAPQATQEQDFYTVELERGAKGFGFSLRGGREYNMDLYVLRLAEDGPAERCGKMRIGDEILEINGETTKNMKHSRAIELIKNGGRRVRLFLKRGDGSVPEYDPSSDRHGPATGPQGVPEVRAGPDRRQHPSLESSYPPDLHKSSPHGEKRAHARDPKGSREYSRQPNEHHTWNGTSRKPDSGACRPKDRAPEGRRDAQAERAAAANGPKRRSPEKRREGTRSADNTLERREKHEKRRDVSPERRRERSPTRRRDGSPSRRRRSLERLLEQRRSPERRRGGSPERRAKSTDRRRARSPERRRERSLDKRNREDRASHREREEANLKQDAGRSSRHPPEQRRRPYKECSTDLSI
Assay: IA-DTB cysteine engagement
Assay type: binding
Conditions: 22Rv1 cells, 20 μM probe, 1 h, relative to DMSO
reported-property: % engagement MAGI1_C526 (%)
Lab book: enter the figure in %, no units written.

Here's what some known entries look like.
[
  {
    "compound": "C=CC(=O)N1C[C@H](c2ccc(Br)cc2)[C@H]1C(=O)Nc1cccc2cccnc12 [MY-3B]",
    "tested-on": "MAGI1_C526 (Homo sapiens)",
    "% engagement MAGI1_C526, %": 100
  },
  {
    "compound": "C=CC(=O)N1C[C@H](c2ccc(Br)cc2)[C@H]1C(=O)Nc1cccc2cccnc12 [MY-3A]",
    "tested-on": "MAGI1_C526 (Homo sapiens)",
    "% engagement MAGI1_C526, %": 2.5
  },
  {
    "compound": "C=CC(=O)N1C[C@H](c2ccc(Br)cc2)[C@@H]1C(=O)Nc1cccc2cccnc12",
    "tested-on": "MAGI1_C526 (Homo sapiens)",
    "% engagement MAGI1_C526, %": 32
  }
]

[ask] Lab note: record % engagement MAGI1_C526 of C=CC(=O)N1C[C@@H](c2ccc(Br)cc2)[C@H]1C(=O)Nc1cccc2cccnc12 tested on MAGI1_C526 (Homo sapiens).
[reply] 65

###

Listed below: % engagement SUPT3H_C268 values for each entry.
Target: SUPT3H_C268 (Homo sapiens)
Construct: endogenous in cells; host or cells: 22Rv1
Sequence (O75486 whole entry): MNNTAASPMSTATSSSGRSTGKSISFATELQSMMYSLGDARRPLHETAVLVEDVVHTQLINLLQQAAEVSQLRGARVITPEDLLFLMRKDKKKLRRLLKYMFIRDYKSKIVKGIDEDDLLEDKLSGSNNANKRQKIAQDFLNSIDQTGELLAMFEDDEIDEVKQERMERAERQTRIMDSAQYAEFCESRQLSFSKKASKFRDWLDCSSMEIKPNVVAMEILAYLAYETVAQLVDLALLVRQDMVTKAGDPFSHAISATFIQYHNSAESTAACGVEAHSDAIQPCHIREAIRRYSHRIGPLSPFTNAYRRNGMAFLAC
Assay: IA-DTB cysteine engagement
Assay type: binding
Settings: 22Rv1 cells, 20 μM probe, 1 h, relative to DMSO
Description: Sample preparation: Cells (adherent: 15 cm dishes, suspension: 2 million cells/mL) were treated with electrophilic probes in situ for indicated times and concentrations, washed with ice-cold PBS, and flash frozen in liquid nitrogen. […] Whole cell lysates protein content was measured using a standard DC protein assay (Bio-Rad) and 500 μL (2 mg/mL protein content) were treated with 5 μL of 10 mM 1A-DTB (in DMSO) for 1 h at ambient temperature with occasional vortexing. […]
Lab book: enter the figure in %, no units written.

[
  {
    "compound": "C=CC(=O)N1C[C@H](c2ccc(Br)cc2)[C@H]1C(=O)Nc1cccc2cccnc12 [MY-3A]",
    "tested-on": "SUPT3H_C268 (Homo sapiens)",
    "% engagement SUPT3H_C268, %": 62.5
  },
  {
    "compound": "C=CC(=O)N1C[C@H](c2ccc(Br)cc2)[C@H]1C(=O)Nc1cccc2cccnc12 [MY-3B]",
    "tested-on": "SUPT3H_C268 (Homo sapiens)",
    "% engagement SUPT3H_C268, %": 70.5
  },
  {
    "compound": "C=CC(=O)N1C[C@H](c2ccc(Br)cc2)[C@@H]1C(=O)Nc1cccc2cccnc12",
    "tested-on": "SUPT3H_C268 (Homo sapiens)",
    "% engagement SUPT3H_C268, %": 34.5
  }
]

Next up:
[ask] Using known records, supply % engagement SUPT3H_C268 for C=CC(=O)N1C[C@@H](c2ccc(Br)cc2)[C@H]1C(=O)Nc1cccc2cccnc12
[reply] 27

###

Molecular target: CHUK_C406 (Homo sapiens)
Construct: endogenous in cells; host or cells: 22Rv1
Sequence (O15111 1-745): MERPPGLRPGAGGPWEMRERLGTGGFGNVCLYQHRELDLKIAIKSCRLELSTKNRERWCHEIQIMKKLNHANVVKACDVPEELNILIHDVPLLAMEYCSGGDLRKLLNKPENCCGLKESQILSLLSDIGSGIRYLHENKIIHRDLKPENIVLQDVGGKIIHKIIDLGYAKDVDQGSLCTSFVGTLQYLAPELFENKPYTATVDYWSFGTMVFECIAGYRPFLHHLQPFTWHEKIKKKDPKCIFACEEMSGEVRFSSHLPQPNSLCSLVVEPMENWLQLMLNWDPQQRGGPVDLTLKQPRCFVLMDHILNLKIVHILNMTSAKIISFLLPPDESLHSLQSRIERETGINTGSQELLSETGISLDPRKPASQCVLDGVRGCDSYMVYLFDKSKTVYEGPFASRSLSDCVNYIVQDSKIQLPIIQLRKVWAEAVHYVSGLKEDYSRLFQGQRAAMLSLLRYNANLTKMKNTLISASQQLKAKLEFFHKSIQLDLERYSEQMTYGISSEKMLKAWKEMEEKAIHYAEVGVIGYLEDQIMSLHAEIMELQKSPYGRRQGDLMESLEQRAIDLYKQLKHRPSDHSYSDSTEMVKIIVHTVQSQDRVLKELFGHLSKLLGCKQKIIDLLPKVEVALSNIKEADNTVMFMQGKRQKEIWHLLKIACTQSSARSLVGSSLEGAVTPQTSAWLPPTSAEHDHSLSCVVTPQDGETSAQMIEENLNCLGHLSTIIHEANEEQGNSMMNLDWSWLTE
Test: IA-DTB cysteine engagement
Type: binding
Conditions: 22Rv1 cells, 20 μM probe, 1 h, relative to DMSO
reported-property: % engagement CHUK_C406 (%)
Lab book: enter the figure in %, no units written.

Here's what some known entries look like.
[
  {
    "compound": "C=CC(=O)N1C[C@H](c2ccc(Br)cc2)[C@@H]1C(=O)Nc1cccc2cccnc12",
    "% engagement CHUK_C406 [%]": 28.5
  },
  {
    "compound": "C=CC(=O)N1C[C@H](c2ccc(Br)cc2)[C@H]1C(=O)Nc1cccc2cccnc12 [MY-3B]",
    "% engagement CHUK_C406 [%]": 97
  },
  {
    "compound": "C=CC(=O)N1C[C@H](c2ccc(Br)cc2)[C@H]1C(=O)Nc1cccc2cccnc12 [MY-3A]",
    "% engagement CHUK_C406 [%]": 0
  }
]

[ask] Using known records, supply % engagement CHUK_C406 for C=CC(=O)N1C[C@@H](c2ccc(Br)cc2)[C@H]1C(=O)Nc1cccc2cccnc12
[reply] 51.5
